Recorded pEC50 for the following molecules
tested-on: hGPR119 (Homo sapiens, UniProt Q8TDV5)
Sequence (Q8TDV5 2-335 limits assumed): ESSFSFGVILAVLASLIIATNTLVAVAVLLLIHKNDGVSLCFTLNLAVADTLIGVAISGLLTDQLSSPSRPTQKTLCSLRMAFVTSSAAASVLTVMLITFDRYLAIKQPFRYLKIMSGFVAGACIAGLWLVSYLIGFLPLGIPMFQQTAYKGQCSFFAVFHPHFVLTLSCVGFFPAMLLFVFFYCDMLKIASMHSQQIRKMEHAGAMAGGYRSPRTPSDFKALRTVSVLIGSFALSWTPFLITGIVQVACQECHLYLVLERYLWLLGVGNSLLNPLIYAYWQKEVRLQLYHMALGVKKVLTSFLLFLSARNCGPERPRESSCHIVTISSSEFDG
experiment-notes: HTRF cAMP assay in CHO-K1 cells stably expressing the GPR119 receptor
experimental-setup: 1 h room temperature
On this scale, pEC50 is minus log10 of a concentration expressed in M (mol/L).

Examples with answers:
C[C@@H](OC(=O)N1CCC(O[C@H]2CC[C@H](Oc3cnc(S(C)(=O)=O)cn3)CC2)CC1)C(F)(F)F	8.52
CC(C)(C)OC(=O)N1CCC(O[C@H]2CC[C@H](Oc3ccc(S(C)(=O)=O)cc3F)CC2)CC1	8.10
CC(C)c1noc(N2CCC(O[C@H]3CC[C@H](Oc4cnc(C(=O)N(C)C)cn4)CC3)CC2)n1	6.82

Provide the documented pEC50 with hGPR119 (Homo sapiens, UniProt Q8TDV5) as the system for `C=C(C)c1noc(N2CCC(O[C@H]3CC[C@H](Oc4cnc(S(C)(=O)=O)cn4)CC3)CC2)n1` 7.51

Provide the documented pEC50 with hGPR119 (Homo sapiens, UniProt Q8TDV5) as the system for `CC(C)(C)OC(=O)CN1CCC(O[C@H]2CC[C@H](Oc3ccc(S(C)(=O)=O)cc3)CC2)CC1` 6.37

Provide the documented pEC50 with hGPR119 (Homo sapiens, UniProt Q8TDV5) as the system for `CC(C)OC(=O)N1CCC(O[C@H]2CC[C@H](Oc3ccc(S(C)(=O)=O)cc3F)CC2)CC1` 7.72

Provide the documented pEC50 with hGPR119 (Homo sapiens, UniProt Q8TDV5) as the system for `Cc1nc(S(C)(=O)=O)ccc1O[C@H]1CC[C@H](OC2CCN(C(=O)SC(C)C)CC2)CC1` 8.30

Provide the documented pEC50 with hGPR119 (Homo sapiens, UniProt Q8TDV5) as the system for `CC(C)(C)OC(=O)N1CCC(O[C@H]2CC[C@@H](Oc3ccc(S(C)(=O)=O)cc3)CC2)CC1` 6.58

Provide the documented pEC50 with hGPR119 (Homo sapiens, UniProt Q8TDV5) as the system for `CC(C)OC(=O)N1CCC(O[C@H]2CC[C@H](Oc3cnc(-c4ccnnc4)cn3)CC2)CC1` 6.55

Provide the documented pEC50 with hGPR119 (Homo sapiens, UniProt Q8TDV5) as the system for `CCC(F)(F)C(=O)N1CCC(O[C@H]2CC[C@H](Oc3ccc(S(C)(=O)=O)cc3)CC2)CC1` 7.96
